# TEST CONDITIONS: in acetone, 296.45 K
PARAMETER MEASURED: solubility (mole fraction)
# answer = number (no unit)

## Task May I ask what solubility (mole fraction) has been recorded for c1ccc(OP2(Oc3ccccc3)=NP(Oc3ccccc3)(Oc3ccccc3)=NP(Oc3ccccc3)(Oc3ccccc3)=N2)cc1 ?
## Result 0.0349

====

# TEST CONDITIONS: in benzene, 308.35 K
PARAMETER MEASURED: solubility (mole fraction)
Respond with the number and no other words.

## Task Request the reported solubility (mole fraction) associated with CP(=O)(O)c1ccccc1
## Result 0.113

====

# TEST CONDITIONS: in water, 314.25 K
PARAMETER MEASURED: solubility (mole fraction)
Lab note: record just the number, no unit beside it.

## Task // returns reported solubility (mole fraction) for input CP(=O)(O)c1ccccc1
## Result 0.032

====

# TEST CONDITIONS: in chloroform, 313.15 K
PARAMETER MEASURED: solubility (mole fraction)
// return just the number, without any unit appended

## Task solubility (mole fraction) for O=[PH](O)c1ccccc1 ?
## Result 0.269

## Task Next entry: CP(=O)(O)c1ccccc1
## Result 0.214

====

# TEST CONDITIONS: in dichloromethane, 306.05 K
PARAMETER MEASURED: solubility (mole fraction)
Please reply with the number alone, leaving off any unit.

## Task Which measured solubility (mole fraction) value corresponds to c1ccc(OP2(Oc3ccccc3)=NP(Oc3ccccc3)(Oc3ccccc3)=NP(Oc3ccccc3)(Oc3ccccc3)=N2)cc1 ?
## Result 0.179

====

# TEST CONDITIONS: in ethyl acetate, 328.35 K
PARAMETER MEASURED: solubility (mole fraction)
Please state the value as a number alone, without comment.

## Task Recorded solubility (mole fraction) of O=[PH](O)c1ccccc1 , please.
## Result 0.107

====

# TEST CONDITIONS: in toluene, 343.45 K
PARAMETER MEASURED: solubility (mole fraction)

## Task Endpoint output: solubility (mole fraction) of CP(=O)(O)c1ccccc1 . Value?
## Result 0.564

====

# TEST CONDITIONS: in 2-ethoxyethanol, 348.35 K
PARAMETER MEASURED: solubility (mole fraction)
Hey, just send me the number, nothing else.

## Task Data request, read-out solubility (mole fraction), for c1ccc(OP2(Oc3ccccc3)=NP(Oc3ccccc3)(Oc3ccccc3)=NP(Oc3ccccc3)(Oc3ccccc3)=N2)cc1
## Result 0.042

## Task Now consider CP(=O)(O)c1ccccc1 and answer again.
## Result 0.697

====

# TEST CONDITIONS: in ethyl acetate, 333.25 K
PARAMETER MEASURED: solubility (mole fraction)
Number only, no unit.

## Task Can you share its solubility (mole fraction)? I mean this compound: O=[PH](O)c1ccccc1
## Result 0.136

====

# TEST CONDITIONS: in ethanol, 293.25 K
PARAMETER MEASURED: solubility (mole fraction)
Please state the value as a number alone, without comment.

## Task # solubility (mole fraction) lookup, item CP(=O)(O)c1ccccc1
## Result 0.205

====

# TEST CONDITIONS: in ethanol, 308.25 K
Kindly state solubility (mole fraction) for each of the entries shown.
I'd appreciate a reply containing only the number, no unit.

## Task Given the entry CP(=O)(O)c1ccccc1 , report its measured solubility (mole fraction).
## Result 0.39

## Task Repeat with O=[PH](O)c1ccccc1
## Result 0.245

====

# TEST CONDITIONS: in THF, 298.15 K
PARAMETER MEASURED: solubility (mole fraction)

## Task Using the record for c1ccc(OP2(Oc3ccccc3)=NP(Oc3ccccc3)(Oc3ccccc3)=NP(Oc3ccccc3)(Oc3ccccc3)=N2)cc1 , report its solubility (mole fraction).
## Result 0.175

====

# TEST CONDITIONS: in methanol, 303.15 K
PARAMETER MEASURED: solubility (mole fraction)
Write no unit; give the number alone.

## Task # get_value(readout='solubility (mole fraction)', item= CP(=O)(O)c1ccccc1 )
## Result 0.343

====

# TEST CONDITIONS: in acetonitrile, 313.35 K
PARAMETER MEASURED: solubility (mole fraction)
Give only the figure.

## Task Reported solubility (mole fraction) for c1ccc(OP2(Oc3ccccc3)=NP(Oc3ccccc3)(Oc3ccccc3)=NP(Oc3ccccc3)(Oc3ccccc3)=N2)cc1 : what is it?
## Result 0.0122

====

# TEST CONDITIONS: in THF, 308.25 K
PARAMETER MEASURED: solubility (mole fraction)

## Task Please give the measured solubility (mole fraction) for this compound: c1ccc(OP2(Oc3ccccc3)=NP(Oc3ccccc3)(Oc3ccccc3)=NP(Oc3ccccc3)(Oc3ccccc3)=N2)cc1
## Result 0.223

====

# TEST CONDITIONS: in benzene, 318.15 K
PARAMETER MEASURED: solubility (mole fraction)
Enter a number only.

## Task Quick check: solubility (mole fraction) of CP(=O)(O)c1ccccc1 ?
## Result 0.218

====

# TEST CONDITIONS: in 2-ethoxyethanol, 313.15 K
PARAMETER MEASURED: solubility (mole fraction)
API doc: respond with a numeric literal and nothing else, no unit.

## Task Suppose we examine the compound O=[PH](O)c1ccccc1 ; what solubility (mole fraction) value has been reported?
## Result 0.205

====

# TEST CONDITIONS: in chloroform, 308.25 K
PARAMETER MEASURED: solubility (mole fraction)
Answer field: number only, no words.

## Task Fill in the blank: the reported solubility (mole fraction) of O=[PH](O)c1ccccc1 is ____.
## Result 0.228

====

# TEST CONDITIONS: in benzene, 333.35 K
PARAMETER MEASURED: solubility (mole fraction)
Note: the reply should be a number with no unit written.

## Task Quick one: solubility (mole fraction) for CP(=O)(O)c1ccccc1 ?
## Result 0.563

====

# TEST CONDITIONS: in chloroform, 293.15 K
PARAMETER MEASURED: solubility (mole fraction)
# print the numeric value only

## Task Find the recorded solubility (mole fraction) belonging to O=[PH](O)c1ccccc1 and report it.
## Result 0.134

## Task Next compound up: CP(=O)(O)c1ccccc1
## Result 0.112

====

So I've got a bunch of compounds here, and I need their solubility (mole fraction) values.
# TEST CONDITIONS: in acetone, 308.25 K

## Task // solubility (mole fraction) lookup, key: O=[PH](O)c1ccccc1
## Result 0.0879

## Task Next up: c1ccc(OP2(Oc3ccccc3)=NP(Oc3ccccc3)(Oc3ccccc3)=NP(Oc3ccccc3)(Oc3ccccc3)=N2)cc1
## Result 0.0588

====

# TEST CONDITIONS: in ethanol, 298.15 K
PARAMETER MEASURED: solubility (mole fraction)
Write the value as a bare number.

## Task Given the entry CP(=O)(O)c1ccccc1 , report its measured solubility (mole fraction).
## Result 0.266

====

# TEST CONDITIONS: in ethanol, 303.35 K
PARAMETER MEASURED: solubility (mole fraction)
Output spec: single numeric token, no unit.

## Task Entry CP(=O)(O)c1ccccc1 : reported solubility (mole fraction) = ?
## Result 0.333

====

# TEST CONDITIONS: in 2-ethoxyethanol, 300.95 K
PARAMETER MEASURED: solubility (mole fraction)
No unit in the answer, please; the number alone is enough.

## Task Look up solubility (mole fraction): c1ccc(OP2(Oc3ccccc3)=NP(Oc3ccccc3)(Oc3ccccc3)=NP(Oc3ccccc3)(Oc3ccccc3)=N2)cc1
## Result 0.0074

====

# TEST CONDITIONS: in ethanol, 328.35 K
PARAMETER MEASURED: solubility (mole fraction)

## Task Param item = c1ccc(OP2(Oc3ccccc3)=NP(Oc3ccccc3)(Oc3ccccc3)=NP(Oc3ccccc3)(Oc3ccccc3)=N2)cc1 ; retrieve measured solubility (mole fraction).
## Result 0.0147

====

# TEST CONDITIONS: in methanol, 298.15 K
PARAMETER MEASURED: solubility (mole fraction)
Give your answer as a number; write no unit.

## Task Need solubility (mole fraction), item O=[PH](O)c1ccccc1
## Result 0.215

====

# TEST CONDITIONS: in acetonitrile, 323.45 K
PARAMETER MEASURED: solubility (mole fraction)
Kindly provide the number alone.

## Task Look up solubility (mole fraction): c1ccc(OP2(Oc3ccccc3)=NP(Oc3ccccc3)(Oc3ccccc3)=NP(Oc3ccccc3)(Oc3ccccc3)=N2)cc1
## Result 0.0243

====

# TEST CONDITIONS: in ethyl acetate, 303.45 K
PARAMETER MEASURED: solubility (mole fraction)
Lab note: jot down the number only; don't add units.

## Task Give the measured solubility (mole fraction) of CP(=O)(O)c1ccccc1 .
## Result 0.0941

====

# TEST CONDITIONS: in acetone, 318.15 K
PARAMETER MEASURED: solubility (mole fraction)
The answer should be a number; do not append a unit.

## Task Reported solubility (mole fraction), compound CP(=O)(O)c1ccccc1 : ____
## Result 0.165
